Origin of the recorded values: the domain aggregation screens of Martell et al. (2025)

Assay: soluble fraction after stress (log2 fold change); higher = more stays soluble; pooled small domains, quantitative proteomics
Settings: stress: pH 4
assay-readout: soluble fraction (log2)
Answers are plain numbers.

Solved entries:
Name the reported soluble fraction (log2) value associated with the sequence HMNVAVGNSKLVGVAGERAYFVNGVGAAARTLSLQVGDALPTGEKVRRIERDGVTMTGASGDVRLSVLP
0.138

Lookup HMPALATKDSVLDGRAEVVSYVRDTSVFYLRVRVPQKQGYRSRRIDGVSTLPEAITKALDTYMDLGT
-1.02

Lookup HMQPTVEGLMKALETMTFNERTALALHYGLTGRQPMTFMAIGRYLGISDGRAEALVNSAIRKLR
0.0497

Lookup HMKLVESALSILEEAVDRDFHGNLGDAARYFDIPYQTIYSWLKSRKRVPSLRALEPVLEKLGVSFTT
-0.479

Lookup HMTTGLETYPGKIAVVSDDFIDGEGRVQLDGALWRAKTKDHQQLKQGDHVTIVNVKGLTLTVMPDD
-0.0405

Give measured soluble fraction (log2) for every item shown.
1. HMSPFAHHLHELRMRHGIRQNELAELIGYDQTYISALEVGLKGPPTPEFVDKLVEGLALSRTEEAALRSAA
2. HMGDIQFMEYRINHSSGWIGKNISDFAAVSKNLVILIKRGQDVVIPRGPTAIMEDDVLVLHA
3. HMEVLSKRGSTGTEVINIQKKLKNWGYYTGSVDGIYGKLTEEAVRYFQRTNGLTVDGIAGKNTLAAMGIA
4. HMRRSDLVTQGDEILKRLQWNQQQAKDFLNQHLKASSRQQLTDEQLLNFNMLLEEQLVKSME
5. HMNNISKKIKELREQNNITQNKLANDLFIKQQTVAQWENGSRALKADSIISLAKYFNVSTDYLLGLTEN
6. HMINLGDLEVGHTYHTRMPILQNDLKYSHKSPIQIVAEHSIVYGVRVYIGFLNEHRVLVTADDV

-0.562
-1.15
0.399
-0.0311
-0.634
-0.269

Give measured soluble fraction (log2) for every item shown.
1. HMAPLRTQYVNVNYANAAEIKTLISGADKEVGSLLSERGSVVVDKRTNTLIIQDTQARLNDIGDLIEQLD
2. HMKQGKGIIVVDGKLMPEDFNVATLSLDEVESITVLKGEKAVALYGEKAKEREVLLITTQKG
3. HMNEYIVSAEQEGMRLDVFLTEQMEGSRSYIQSLIKGGHVTVGDKVGKANLRLTPDTVIHVEIPEPE
4. HMLKPIHKDWSPNGDAKEILLKAGITEEFIQKELPEFIMYWSERNEESDIWNSKFIAHIRRRWGRFS
5. HMEATEFYLEDLTGQMYNDVVNDEKYAGKIVFEKEEVQSDGEEAIGQILNQRPAGNMNVRIGTTVTLVVNA
6. HMIGRRLKVARASAGLSLRELAARMDGVVTPQAIGKYERNEDMPGSRALMALASALGVSEGYLLSD

1. -0.52
2. -0.316
3. -0.166
4. -1.23
5. -0.201
6. -0.0156

###

Assay: soluble fraction after stress (log2 fold change); higher = more stays soluble; pooled small domains, quantitative proteomics
Conditions: stress: pH 4
The threshold is inclusive: soluble fraction (log2) of exactly 0.01 counts as Satisfied; values below receive Not satisfied.

Solved cases below.
Please indicate if the recorded soluble fraction (log2) for HMDSSNLSLIAGVGPTIEKKLRAAGITSWEQIAAWTEADVAKYDEELNLRGRITRDEWIEQAKELLAGKPP meets or exceeds 0.01.
Satisfied

Lookup HMIDVNLVQRGKTLHLRRRVPMRYSSVERREYVSISLKTDSEAEARRKAGAAWDQMIAAWEARLA
Not satisfied

Lookup HMNASITVPDVRNLTVKQASEQLLASGFTPIPYAATKDGVGNDIVYAQDPPPSVLARSGDQITITYNPA
Satisfied

Lookup HMVERQVTVPNLTGLGVADAQRLAQSMELDIEVLGEQESTDARPGAVLQQTPGAGTRAAAGSVVSVLV
Not satisfied

Lookup HMDRWSLLTLTTLAGGTLRFTELKRAIGDISQRMLAQTLRTLEREGYVSRKVYATIPPKVEYRLTALGQSL
Satisfied

API: the following record is the query input.
Please indicate if the recorded soluble fraction (log2) for HMDVNPETLSYYIERADISLDELRTSVKGIDLFLTGEKQPTFNQISNIAKKLNIPTGLLLINKPIEI meets or exceeds 0.01.
Not satisfied
